- test description: In vivo pharmacokinetics in mice
- details: male, CD1, plasma; mouse, 10 mg/kg SC, 0.250 h, n=3; read-out: Plasma concentration, Mean SC
observable: concentration at […] (ng/mL)
Numbers only, in ng/mL.

State its concentration at […]: CN[C@H](CC(C)C)C(=O)N[C@H]1C(=O)N[C@@H](CC(N)=O)C(=O)N[C@H]2C(=O)N[C@H]3C(=O)N[C@H](C(=O)N[C@H](C(=O)O)c4cc(O)cc(O)c4-c4cc3ccc4O)[C@H](O)c3ccc(c(Cl)c3)Oc3cc2cc(c3O[C@@H]2O[C@H](CO)[C@@H](O)[C@H](O)[C@H]2O[C@H]2C[C@](C)(N)[C@H](O)[C@H](C)O2)Oc2ccc(cc2Cl)[C@H]1O
10700

---

- test description: Haemolysis assay
- Format: cell-based
- details: human; 50 µg mL-1; read-out: % Human Whole Blood Haemolysis
observable: hemolysis at 3 h, 50 µg mL-1 (%)
One number for each entry, in %.

Give the reported value of hemolysis at 3 h, 50 µg mL-1 for this record: CN[C@H](CC(C)C)C(=O)N[C@H]1C(=O)N[C@@H](CC(N)=O)C(=O)N[C@H]2C(=O)N[C@H]3C(=O)N[C@H](C(=O)N[C@H](C(=O)O)c4cc(O)cc(O)c4-c4cc3ccc4O)[C@H](O)c3ccc(c(Cl)c3)Oc3cc2cc(c3O[C@@H]2O[C@H](CO)[C@@H](O)[C@H](O)[C@H]2O[C@H]2C[C@](C)(N)[C@H](O)[C@H](C)O2)Oc2ccc(cc2Cl)[C@H]1O
0.4

---

- System: Methicillin-resistant S. aureus ATCC 43300
- test description: microbe, parasite or virus in culture
- details: ATCC 43300, 24 h
observable: MIC MRSA (µg/mL)
Answers are plain numbers, in µg/mL.

Report MIC MRSA for CCCCCCCCCCC(=O)N[C@@H](CCCCN)C(=O)N[C@@H](CCCCN)C(=O)N[C@@H](CCCCN)C(=O)N[C@@H](CCCCNC(=O)[C@H]1NC(=O)[C@H]2NC(=O)[C@H](NC(=O)[C@@H]3NC(=O)[C@H](CC(N)=O)NC(=O)[C@H](NC(=O)[C@@H](CC(C)C)NC)[C@H](O)c4ccc(c(Cl)c4)Oc4cc3cc(c4O[C@@H]3O[C@H](CO)[C@@H](O)[C@H](O)[C@H]3O[C@H]3C[C@](C)(N)[C@H](O)[C@H](C)O3)Oc3ccc(cc3Cl)[C@H]2O)c2ccc(O)c(c2)-c2c(O)cc(O)cc21)C(=O)O [Compound 18, nC10CO-KKK-K(Vancomycin)-OH]
0.045

---

- test description: Haemolysis assay
- Format: cell-based
- details: human; 800 µg mL-1; read-out: % Human Whole Blood Haemolysis
observable: hemolysis at 3 h, 800 µg mL-1
State the value, then name its unit.

// Input: CN[C@H](CC(C)C)C(=O)N[C@H]1C(=O)N[C@@H](CC(N)=O)C(=O)N[C@H]2C(=O)N[C@H]3C(=O)N[C@H](C(=O)N[C@H](C(=O)O)c4cc(O)cc(O)c4-c4cc3ccc4O)[C@H](O)c3ccc(c(Cl)c3)Oc3cc2cc(c3O[C@@H]2O[C@H](CO)[C@@H](O)[C@H](O)[C@H]2O[C@H]2C[C@](C)(N)[C@H](O)[C@H](C)O2)Oc2ccc(cc2Cl)[C@H]1O [Compound 1, Vancomycin] . Output its hemolysis at 3 h, 800 µg mL-1 only.
0.8%

---

- test description: Haemolysis assay
- Assay type: cell-based
- details: human, whole blood, 100 µg mL-1
So I've got a bunch of compounds here, and I need their hemolysis at 3 h values.
Answers are plain numbers, in %.

Please go through the list and note hemolysis at 3 h for each compound.
1. CCCCCCCCCCC(=O)N[C@@H](CCCCN)C(=O)N[C@@H](CCCCN)C(=O)N[C@@H](CCCCNC(=O)[C@H]1NC(=O)[C@H]2NC(=O)[C@H](NC(=O)[C@@H]3NC(=O)[C@H](CC(N)=O)NC(=O)[C@H](NC(=O)[C@@H](CC(C)C)NC)[C@H](O)c4ccc(c(Cl)c4)Oc4cc3cc(c4O[C@@H]3O[C@H](CO)[C@@H](O)[C@H](O)[C@H]3O[C@H]3C[C@](C)(N)[C@H](O)[C@H](C)O3)Oc3ccc(cc3Cl)[C@H]2O)c2ccc(O)c(c2)-c2c(O)cc(O)cc21)C(=O)NC [Compound 22, nC10CO-KK-K(Vancomycin)-NHMe]
2. CCCCCCCCCCCCCC(=O)NCC(=O)N[C@@H](CO)C(=O)N[C@@H](CCCCN)C(=O)N[C@@H](CCCCN)C(=O)N[C@@H](CCCCN)C(=O)N[C@@H](CSSCCNC(=O)[C@H]1NC(=O)[C@H]2NC(=O)[C@H](NC(=O)[C@@H]3NC(=O)[C@H](CC(N)=O)NC(=O)[C@H](NC(=O)[C@@H](CC(C)C)NC)[C@H](O)c4ccc(c(Cl)c4)Oc4cc3cc(c4O[C@@H]3O[C@H](CO)[C@@H](O)[C@H](O)[C@H]3O[C@H]3C[C@](C)(N)[C@H](O)[C@H](C)O3)Oc3ccc(cc3Cl)[C@H]2O)c2ccc(O)c(c2)-c2c(O)cc(O)cc21)C(=O)O
3. CCCCCCCCCCC(=O)N[C@@H](CCCCN)C(=O)N[C@@H](CCCCN)C(=O)N[C@@H](CCCCNC(=O)[C@H]1NC(=O)[C@H]2NC(=O)[C@H](NC(=O)[C@@H]3NC(=O)[C@H](CC(N)=O)NC(=O)[C@H](NC(=O)[C@@H](CC(C)C)NC)[C@H](O)c4ccc(c(Cl)c4)Oc4cc3cc(c4O[C@@H]3O[C@H](CO)[C@@H](O)[C@H](O)[C@H]3O[C@H]3C[C@](C)(N)[C@H](O)[C@H](C)O3)Oc3ccc(cc3Cl)[C@H]2O)c2ccc(O)c(c2)-c2c(O)cc(O)cc21)C(=O)O [Compound 19, nC10CO-KK-K(Vancomycin)-OH]

1: 1.9; 2: 0.4; 3: 0.7

---

- Test system: Vancomycin-intermediate S. aureus NRS1
- test description: microbe, parasite or virus in culture
- details: Vancomycin-intermediate NRS1
observable: MIC VISA
Write down the value, and be sure its unit follows.

Could you tell me MIC VISA for each of these compounds? They are listed below.
1. CCCCCCCCCCC(=O)N[C@@H](CCCCN)C(=O)N[C@@H](CCCCN)C(=O)N[C@@H](CCCCNC(=O)[C@H]1NC(=O)[C@H]2NC(=O)[C@H](NC(=O)[C@@H]3NC(=O)[C@H](CC(N)=O)NC(=O)[C@H](NC(=O)[C@@H](CC(C)C)NC)[C@H](O)c4ccc(c(Cl)c4)Oc4cc3cc(c4O[C@@H]3O[C@H](CO)[C@@H](O)[C@H](O)[C@H]3O[C@H]3C[C@](C)(N)[C@H](O)[C@H](C)O3)Oc3ccc(cc3Cl)[C@H]2O)c2ccc(O)c(c2)-c2c(O)cc(O)cc21)C(=O)O [Compound 19, nC10CO-KK-K(Vancomycin)-OH]
2. CCCCCCCCCCC(=O)N[C@@H](CCCCNC(=O)[C@H]1NC(=O)[C@H]2NC(=O)[C@H](NC(=O)[C@@H]3NC(=O)[C@H](CC(N)=O)NC(=O)[C@H](NC(=O)[C@@H](CC(C)C)NC)[C@H](O)c4ccc(c(Cl)c4)Oc4cc3cc(c4O[C@@H]3O[C@H](CO)[C@@H](O)[C@H](O)[C@H]3O[C@H]3C[C@](C)(N)[C@H](O)[C@H](C)O3)Oc3ccc(cc3Cl)[C@H]2O)c2ccc(O)c(c2)-c2c(O)cc(O)cc21)C(=O)O [Compound 20, nC10CO-K(Vancomycin)-OH]

1. 0.5 µg/mL
2. 1.5 µg/mL

---

- test description: In vivo pharmacokinetics in mice
- details: mouse, IV 2 mg kg-1
observable: AUC0-inf/AUC0-last (%)
Numbers only, in %.

Entry CCCCCCCCCCC(=O)N[C@@H](CCCCN)C(=O)N[C@@H](CCCCN)C(=O)N[C@@H](CCCCN)C(=O)N[C@@H](CCCCNC(=O)[C@H]1NC(=O)[C@H]2NC(=O)[C@H](NC(=O)[C@@H]3NC(=O)[C@H](CC(N)=O)NC(=O)[C@H](NC(=O)[C@@H](CC(C)C)NC)[C@H](O)c4ccc(c(Cl)c4)Oc4cc3cc(c4O[C@@H]3O[C@H](CO)[C@@H](O)[C@H](O)[C@H]3O[C@H]3C[C@](C)(N)[C@H](O)[C@H](C)O3)Oc3ccc(cc3Cl)[C@H]2O)c2ccc(O)c(c2)-c2c(O)cc(O)cc21)C(=O)O [Compound 18, nC10CO-KKK-K(Vancomycin)-OH] needs its AUC0-inf/AUC0-last filled in; supply it.
101

---

For each entry below, report its AUC0-inf/AUC0-last value.
- test description: In vivo pharmacokinetics in mice
- details: mouse, SC 10 mg kg-1
Numbers only, in %.

{"compound": "CCCCCCCCCCC(=O)N[C@@H](CCCCN)C(=O)N[C@@H](CCCCN)C(=O)N[C@@H](CCCCNC(=O)[C@H]1NC(=O)[C@H]2NC(=O)[C@H](NC(=O)[C@@H]3NC(=O)[C@H](CC(N)=O)NC(=O)[C@H](NC(=O)[C@@H](CC(C)C)NC)[C@H](O)c4ccc(c(Cl)c4)Oc4cc3cc(c4O[C@@H]3O[C@H](CO)[C@@H](O)[C@H](O)[C@H]3O[C@H]3C[C@](C)(N)[C@H](O)[C@H](C)O3)Oc3ccc(cc3Cl)[C@H]2O)c2ccc(O)c(c2)-c2c(O)cc(O)cc21)C(=O)O [Compound 19, nC10CO-KK-K(Vancomycin)-OH]", "units of measure": "%", "AUC0-inf/AUC0-last": 101}

Give measured AUC0-inf/AUC0-last for every item shown.
1. CCCCCCCCCCC(=O)N[C@@H](CCCCN)C(=O)N[C@@H](CCCCN)C(=O)N[C@@H](CCCCN)C(=O)N[C@@H](CCCCNC(=O)[C@H]1NC(=O)[C@H]2NC(=O)[C@H](NC(=O)[C@@H]3NC(=O)[C@H](CC(N)=O)NC(=O)[C@H](NC(=O)[C@@H](CC(C)C)NC)[C@H](O)c4ccc(c(Cl)c4)Oc4cc3cc(c4O[C@@H]3O[C@H](CO)[C@@H](O)[C@H](O)[C@H]3O[C@H]3C[C@](C)(N)[C@H](O)[C@H](C)O3)Oc3ccc(cc3Cl)[C@H]2O)c2ccc(O)c(c2)-c2c(O)cc(O)cc21)C(=O)O [Compound 18, nC10CO-KKK-K(Vancomycin)-OH]
2. CCCCCCCCCCC(=O)N[C@@H](CCCCN)C(=O)N[C@@H](CCCCN)C(=O)N[C@@H](CCCCNC(=O)[C@H]1NC(=O)[C@H]2NC(=O)[C@H](NC(=O)[C@@H]3NC(=O)[C@H](CC(N)=O)NC(=O)[C@H](NC(=O)[C@@H](CC(C)C)NC)[C@H](O)c4ccc(c(Cl)c4)Oc4cc3cc(c4O[C@@H]3O[C@H](CO)[C@@H](O)[C@H](O)[C@H]3O[C@H]3C[C@](C)(N)[C@H](O)[C@H](C)O3)Oc3ccc(cc3Cl)[C@H]2O)c2ccc(O)c(c2)-c2c(O)cc(O)cc21)C(N)=O [Compound 21, nC10CO-KK-K(Vancomycin)-NH2]

1: 101; 2: 101
